Experiment: Displacement of [3H]di-O-tolyguanidine from sigma2 receptor in rat brain homogenate
Type: tissue-based
Entries and their Ki

IN: Item under review: C=CCN1CC[C@]23c4c5ccc(O)c4O[C@H]2C(=O)CC[C@@]3(O)[C@H]1C5 [NALOXONE] . Reported Ki?
OUT: > 10000 nM

IN: Again, but for `CC(C)=CCN1CC[C@@]2(C)c3cc(O)ccc3C[C@@H]1[C@@H]2C`
OUT: 56 nM

IN: Would you mind doing COc1cccc2c1O[C@H]1CCC[C@H]3CN(CCc4ccccc4)CC[C@@]231 (stereo in doubt; (-)-3c) as well?
OUT: 3270 nM

IN: Same read-out for CC(C)=CCN1CC[C@]2(C)c3cc(O)ccc3C[C@H]1[C@H]2C [(+)-PENTAZOCINE] ?
OUT: 1360 nM
